Target: T1, human cholecystokinin-2 receptor (human, UniProt P32239 1-447)
T1 sequence (looked up): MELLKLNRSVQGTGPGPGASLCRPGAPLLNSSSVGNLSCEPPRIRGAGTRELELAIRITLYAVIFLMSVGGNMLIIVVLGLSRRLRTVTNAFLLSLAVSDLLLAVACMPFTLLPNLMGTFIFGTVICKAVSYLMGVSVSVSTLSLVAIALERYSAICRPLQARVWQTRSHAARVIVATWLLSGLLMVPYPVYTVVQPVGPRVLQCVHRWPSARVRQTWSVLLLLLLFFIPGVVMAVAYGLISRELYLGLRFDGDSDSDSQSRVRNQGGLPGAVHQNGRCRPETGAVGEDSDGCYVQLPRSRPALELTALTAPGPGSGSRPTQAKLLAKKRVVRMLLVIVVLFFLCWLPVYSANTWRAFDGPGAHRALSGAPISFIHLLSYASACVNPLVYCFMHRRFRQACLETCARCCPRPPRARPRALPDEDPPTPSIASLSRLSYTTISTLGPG
Assay: cell-based or functional assay
Starred links: 1 amine or outer side, 2 acyl side, 3 side chain; linkers in the order of their positions; H or OH if unused. Non-standard residues stand in square brackets, D forms with d. *: point of attachment. sY = N[C@@H](Cc1ccc(OS(=O)(=O)O)cc1)C(=O)O; C18 diacid = O=C(O)CCCCCCCCCCCCCCCCC(=O)*; γGlu = O=C(O)[C@H](CCC(=O)[*:2])N[*:1]; C14 diacid = O=C(O)CCCCCCCCCCCCC(=O)*; NMeF = CN[C@@H](Cc1ccccc1)C(=O)O; dNMeD = CN[C@H](CC(=O)O)C(=O)O; Nle = CCCC[C@H](N)C(=O)O; AEEA = NCCOCCOCC(=O)O
Here the recorded EC50 (CCK-2R) is given for each entry.
State just the number; it will be interpreted in nM.

{C18 diacid-γGlu-AEEA-AEEA}-[sY][Nle]GW[Nle][dNMeD][NMeF]-NH2 (SMILES CCCC[C@H](NC(=O)[C@H](Cc1ccc(OS(=O)(=O)O)cc1)NC(=O)COCCOCCNC(=O)COCCOCCNC(=O)CC[C@H](NC(=O)CCCCCCCCCCCCCCCCC(=O)O)C(=O)O)C(=O)NCC(=O)N[C@@H](Cc1c[nH]c2ccccc12)C(=O)N[C@@H](CCCC)C(=O)N(C)[C@H](CC(=O)O)C(=O)N(C)[C@@H](Cc1ccccc1)C(N)=O, X = Nle or Nal) = 440

Below: the item to evaluate.
Data request, read-out EC50 (CCK-2R), for {C14 diacid-γGlu-AEEA-AEEA}-E[sY]LGW[Nle][dNMeD][NMeF]-NH2 (SMILES CCCC[C@H](NC(=O)[C@H](Cc1c[nH]c2ccccc12)NC(=O)CNC(=O)[C@H](CC(C)C)NC(=O)[C@H](Cc1ccc(OS(=O)(=O)O)cc1)NC(=O)[C@H](CCC(=O)O)NC(=O)COCCOCCNC(=O)COCCOCCNC(=O)CC[C@H](NC(=O)CCCCCCCCCCCCC(=O)O)C(=O)O)C(=O)N(C)[C@H](CC(=O)O)C(=O)N(C)[C@@H](Cc1ccccc1)C(N)=O, X = Nle or Nal)
150
